ASSAY_OVERVIEW: Efflux ratio of apparent permeability across apical to basolateral to basolateral to apical side in human Caco-2 cells at 10 uM measured after 60 mins by LC-MS/MS analysis
QUANTITY: efflux ratio at 1 h, 10 µM
Respond with the number and no other words.

Solved cases below.
STRUCTURE	efflux ratio at 1 h, 10 µM
COC(=O)Nc1nc(C)c(S(=O)(=O)N2CCN(C[C@H](C)Nc3ncnc4c(-c5cccnc5C)cccc34)CC2)s1	2.7
Cc1csc2c(N[C@@H](C)CN3CCN(S(=O)(=O)c4ccc(Cl)c(Cl)c4)CC3)ncnc12	1
COC(=O)Nc1nc(C)c(S(=O)(=O)N2CCN(C[C@H](C)Nc3ncnc4c(C)csc34)CC2)s1	1.7

API: the following record is the query input.
Would you kindly share the measured efflux ratio at 1 h, 10 µM for `COC(=O)Nc1nc(C)c(S(=O)(=O)N2CCN(C[C@H](C)Nc3ncnc4c(-c5c(C)noc5C)cccc34)CC2)s1` ?
6.3

* * *

Values of pIC50 reported for UniProt:Q92633 appear below.
Sequence (Q92633 whole entry): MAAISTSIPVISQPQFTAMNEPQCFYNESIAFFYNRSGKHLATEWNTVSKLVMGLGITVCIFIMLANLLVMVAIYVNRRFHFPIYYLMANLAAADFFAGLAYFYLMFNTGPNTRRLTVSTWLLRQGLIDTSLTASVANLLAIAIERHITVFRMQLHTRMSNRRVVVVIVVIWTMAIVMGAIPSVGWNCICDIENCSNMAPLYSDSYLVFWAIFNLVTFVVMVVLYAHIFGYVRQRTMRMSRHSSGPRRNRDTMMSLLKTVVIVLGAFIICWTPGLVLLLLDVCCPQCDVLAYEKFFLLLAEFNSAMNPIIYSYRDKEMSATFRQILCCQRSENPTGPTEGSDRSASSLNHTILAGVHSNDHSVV
pIC50: −log10 of the molar value.

MOLECULE	TESTED_TARGET	RESULT
CC(=O)Nc1ccc(S(=O)(=O)N2CCN(C[C@H](C)Nc3ncnc4c(C)csc34)CC2)cn1	UniProt:Q92633	< 4.30
COC(=O)Nc1nc(C)c(S(=O)(=O)N2CCN(C[C@H](C)Nc3ncnc4c(-c5cn(C)nc5C(F)(F)F)cccc34)CC2)s1	UniProt:Q92633	< 4.30

Would you kindly share the measured pIC50 for `COC(=O)Nc1nc(C)c(S(=O)(=O)N2CCN(C[C@H](C)Nc3ncnc4c(-c5ccc(C)nc5)cccc34)CC2)s1` ?
< 4.30

Would you kindly share the measured pIC50 for `COC(=O)Nc1nc(C)c(S(=O)(=O)N2CCN(C[C@H](C)Nc3ncnc4c(-c5cccnc5C)cccc34)CC2)s1` ?
< 4.30

Would you kindly share the measured pIC50 for Cc1cccc2c(NC(C)CN3CCN(S(=O)(=O)c4ccc(Cl)c(Cl)c4)CC3)ncnc12 (stereo in doubt; 42a) ?
< 4.30

Would you kindly share the measured pIC50 for CC(CN1CCN(S(=O)(=O)c2ccc(Cl)c(Cl)c2)CC1)Nc1ccncn1 (racemic) ?
4.66

* * *

ASSAY_OVERVIEW: Half life in C57BL/6J mouse at 5 mg/kg, po or 4 mg/kg, iv by UPLC-MS/MS analysis
SETUP_CONDITIONS: in vivo
QUANTITY: half-life (h)
Write down the numeric answer in h and omit the unit.

Would you kindly share the measured half-life for `Cc1csc2c(N[C@@H](C)CN3CCN(S(=O)(=O)c4ccc(Cl)c(Cl)c4)CC3)ncnc12` ?
1

* * *

This listing pairs compounds with measured Papp A→B at 1 h, 10 µM.
ASSAY_OVERVIEW: Apparent permeability across apical to basolateral side in human Caco-2 cells at 10 uM measured after 60 mins by LC-MS/MS analysis
Write down the numeric answer in ×10⁻⁶ cm/s and omit the unit.

STRUCTURE	NUMERIC_RESULT
COC(=O)Nc1nc(C)c(S(=O)(=O)N2CCN(C[C@H](C)Nc3ncnc4c(-c5cccc(CN6CCCC6)c5)cccc34)CC2)s1	0.09

Would you kindly share the measured Papp A→B at 1 h, 10 µM for `COC(=O)Nc1nc(C)c(S(=O)(=O)N2CCN(C[C@H](C)Nc3ncnc4c(-c5cccc(CN(C)C)c5)cccc34)CC2)s1` ?
0.18

Would you kindly share the measured Papp A→B at 1 h, 10 µM for `COC(=O)Nc1nc(C)c(S(=O)(=O)N2CCN(C[C@H](C)Nc3ncnc4c(-c5sc(C)nc5C)cccc34)CC2)s1` ?
9.2

Would you kindly share the measured Papp A→B at 1 h, 10 µM for `COC(=O)Nc1nc(C)c(S(=O)(=O)N2CCN(C[C@H](C)Nc3ncnc4c(-c5c(C)noc5C)cccc34)CC2)s1` ?
1.47
